B1: MYL5 (parent)
chain: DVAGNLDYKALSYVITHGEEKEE

- Variants of: B1
- experimentSummary: protein stability index of a GFP-peptide fusion (GPS, HEK-293T) (PSI 1-6); higher = more stable;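 note: lentivirally expressed fusions sorted by FACS into six bins by GFP to DsRed ratio, PSI derived from sequencing read proportions per bin multiplied by bin number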
- appliedConditions: c terminus: native
// values below are reported protein stability index
No unit in the answer, only the number.

Some solved entries appear below for comparison.
[
  {
    "residueSequence": "DVAGNLDYKQLSYVITHGEEKEE [A10Q]",
    "protein stability index": 2
  },
  {
    "residueSequence": "DVAGNLDYKALSYKITHGEEKEE [V14K]",
    "protein stability index": 2.5
  }
]

(Q) # protein stability index lookup, item DVAGNLDYKALSYVITHGEEKDE [E22D]
(A) 4.71

(Q) Given DVAGNLDYKALSYVIKHGEEKEE [T16K] , state its recorded protein stability index.
(A) 2.65

(Q) Returns the measured protein stability index for the input variant. Input: DVAGNLDNKALSYVITHGEEKEE [Y8N]
(A) 1.56

(Q) Would you mind telling me what protein stability index value was observed for DVAGNLDYKALSYVITHGEEKEP [E23P] ?
(A) 2.26

(Q) protein stability index lookup needed for DVAGNLDYKALSYVITHGEIKEE [E20I] , thanks.
(A) 1.81
